Where do these numbers come from? They come from PubChem BioAssay.

The entries below come with measured viability increase values attached.
experiment: viability gain of MRP-1-high H69AR cells under doxorubicin, pilot screen, MRP-1 activator project, CellTiter-Glo, duplicate (AID 807); details: H69AR viability with doxorubicin, CellTiter-Glo luminescence; at 10 µM; hits give high values;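 note: compound pretreatment 18-22 h then 72 h combined with doxorubicin; 0% = doxorubicin alone and 100% = vehicle without doxorubicin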

{"columns": ["compound", "viability increase (%)"],
 "data": [
  ["CC(CNC(=O)c1ccc(Br)o1)NC(=O)c1ccc(Br)o1 (stereo unspecified)", -0.71],
  ["COC(=O)c1cc(NC2c3ccccc3C(=O)N2c2cccnc2)cc(C(=O)OC)c1 (stereo unspecified)", -4.6],
  ["O=C(CSc1nc(-c2ccco2)cc(C(F)(F)F)n1)NC1CCCC1", -0.46],
  ["O=C(CC12CC3CC(CC(C3)C1)C2)N1CCOCC1", -0.17],
  ["Cc1cc(C)nc(NS(=O)(=O)c2ccc(NC(=O)c3ccco3)cc2)n1", -1.87],
  ["O=C(O)CSC1c2ccccc2C(=O)N1Cc1ccccc1 (stereo unspecified)", 2.07],
  ["COCCNC(=O)c1cc(-c2ccc(Cl)c(Cl)c2)on1", -0.93],
  ["CCCC12CN3CC(CCC)(CN(C1)C3C(O)C(O)C(O)CO)C2=O (stereo unspecified)", 0.62],
  ["CCOC(=O)c1ccc(N2C(=O)C3ON(c4ccccc4)C(c4ccco4)C3C2=O)cc1 (stereo unspecified)", -4.17],
  ["Cc1noc(C(=O)NCc2ccco2)c1Cl", -3.01],
  ["O=C(NCc1ccccc1)c1ccc2c(c1)OCCO2", -1.83]
]}

* * *

test: growth suppression of PTEN-deleted HCT116, pilot screen, cell-based, HCT116 clonal line, CellTiter-Glo (AID 824); settings: 60 h, at 10 µM, hits give low values;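 note: 0% = 20 µM Hyamine control and 100% = vehicle cell control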
Results filed as inconclusive are left out.
Collected viability values appear next to each entry.

{"columns": ["compound", "unit_abbreviation", "viability"],
 "data": [
  ["COc1ccccc1N1CCN(CC(=O)c2ccc3ccn(C(C)=O)c3c2)CC1", "%", 79.8],
  ["O=C(OCC(F)(F)C(F)F)c1ccccc1C(=O)Oc1ccc(F)cc1F", "%", 96.1],
  ["CN1CCN(C(=O)C2CC(=O)N(c3ccc(F)c(Cl)c3)C2)CC1 (stereo not given)", "%", 95.9],
  ["Brc1ccc(-c2noc(COc3ccc4c(c3)CCC4)n2)o1", "%", 105],
  ["CCc1ccc(S(=O)(=O)NCc2csc(-c3cccnc3)n2)s1", "%", 101],
  ["C=CCn1c(C(C)NC(=O)CCC)nc2ccccc21 (stereo not given)", "%", 93.9],
  ["COc1ccc(OC)c(CCNC(=O)CN2C(=O)CC(C)(C)S(=O)(=O)c3ccccc32)c1", "%", 92.3],
  ["CCn1cc(C(=O)OCC(=O)Nc2c(C)n(C)n(-c3ccccc3)c2=O)c(=O)c2ccc(C)nc21", "%", 95],
  ["CCCOc1ccc(C2c3c(oc4cc(C)c(C)cc4c3=O)C(=O)N2CCCN2CCOCC2)cc1 (stereo not given)", "%", 89],
  ["O=C(Nc1nnc(-c2ccco2)o1)C1CCCCC1", "%", 93.2]
]}

* * *

assay: RAM signaling pathway blockade in yeast – S. cerevisiae, Pdr1DBD-CYC8 efflux-inhibited sensitized strain, primary screen (AID 1298);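 note: 0% = DMSO untreated cells without growth and 100% = 10 µM 1-NA-PP1 full growth; higher means more yeast growth rescued from 5-FOA killing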; settings: S. cerevisiae cbk1-as DSE1-URA3 strain, 5-FOA growth OD615, 2 d; at 50 µM; hits give high values
assay_readout: RAM network inhibition (%)

{"columns": ["molecule", "assay_readout", "unit_abbreviation", "quantitative_readout"],
 "data": [
  ["O=C(CC1Sc2ccccc2NC1=O)Nc1cccc(C(=O)O)c1 (configuration not stated)", "RAM network inhibition", "%", 4.51],
  ["CCN1C(=O)c2cccc3c(NC(=O)c4ccc(S(=O)(=O)N5CCOCC5)cc4)ccc1c23", "RAM network inhibition", "%", 2.6],
  ["COc1ccc(OC)c(NC(=O)c2ccc(NC(C)=O)cc2)c1", "RAM network inhibition", "%", 5.24],
  ["O=c1c2ccccc2ncn1-c1ccc2c(c1)OCCO2", "RAM network inhibition", "%", 0.78],
  ["Cc1cccc(NC(=O)Nc2ccc(C#N)cc2)n1", "RAM network inhibition", "%", 3.51],
  ["CCc1ccc(Cn2nnc(C(=O)Nc3cccc(C)c3)c2N)cc1", "RAM network inhibition", "%", 8.18],
  ["CN1CCN(S(=O)(=O)c2ccc3ccccc3c2)CC1", "RAM network inhibition", "%", 0.63],
  ["O=C(NCCCN1CCCCC1)c1ccc2c(=O)n(CCc3ccccc3)c(=O)[nH]c2c1", "RAM network inhibition", "%", 8.53],
  ["CCOC(=O)N1CCC(NC(=O)Cn2nc(Cc3ccncc3)c3ccccc3c2=O)CC1", "RAM network inhibition", "%", 0.52],
  ["CCCCCn1c(=O)[nH]c2cc(C(=O)NCCCN3CCC(C)CC3)ccc2c1=O", "RAM network inhibition", "%", 3.34],
  ["Cc1ccc(C2/C(=C(/O)c3ccc(Br)cc3)C(=O)C(=O)N2Cc2ccco2)o1 (configuration not stated)", "RAM network inhibition", "%", -1.74],
  ["Cc1ccc(C(=O)c2cc3c(cc2N)OCCO3)cc1", "RAM network inhibition", "%", 3.36],
  ["O=C(Cn1c(=O)oc2cc(S(=O)(=O)N3CCc4ccccc43)ccc21)NC1CCCC1", "RAM network inhibition", "%", 0.88],
  ["O=C(Cn1cc2c(n1)CCCC2)NCc1cccs1", "RAM network inhibition", "%", 0.81],
  ["CCn1cc(C2N3CC4(C)CN2CC(C)(C3)C4=O)c2ccccc21 (configuration not stated)", "RAM network inhibition", "%", 0.48],
  ["Cc1nnc(NC(=O)CSC2CCCCC2)s1", "RAM network inhibition", "%", 2.15],
  ["Cc1c(Br)cc(C(=O)N2CCCC2)c(C)c1C", "RAM network inhibition", "%", 3.08],
  ["COc1ccc(OC)c(C2C(C(=O)Nc3ccccc3OC)=C(C)Nc3nc(CCCO)nn32)c1 (configuration not stated)", "RAM network inhibition", "%", 4.26],
  ["CCc1ccc(-c2nc(C(N)=O)c3[nH]c(=O)n(-c4ccccc4OC)c3n2)cc1", "RAM network inhibition", "%", 10.7],
  ["Cn1c(=O)c2c(nc(Sc3ncccn3)n2Cc2ccc(Cl)cc2)n(C)c1=O", "RAM network inhibition", "%", 0.26],
  ["Cc1cccc(-n2c(O)c(C=Nc3ccc4c(c3)OCO4)c3ccccc3c2=O)n1", "RAM network inhibition", "%", 2.46],
  ["COCCn1c(SCC(=O)Nc2ccccc2)nc2c1c(=O)[nH]c(=O)n2C", "RAM network inhibition", "%", 1.25]
]}

* * *

test: inhibitors of the yeast RAM network, pilot screen, dse1pr::URA3 reporter, 5-FOA selection (AID 869);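 note: 0% = DMSO wells with no growth and 100% = 10 µM 1-NA-PP1 with full growth; RAM network block rescues cells from 5-FOA so hits raise OD615 growth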; settings: S. cerevisiae dse1pr::URA3 5-FOA growth, OD615, 2 d; at 10 µM; hits give high values; strain carries analog-sensitive mutant Cbk1 kinase

{"columns": ["compound", "inhibition (%)"],
 "data": [
  ["O=S(=O)(NCCN1CCCC1)c1cccc2cccnc12", 0.34],
  ["CCCCCn1c(=N)n(CC(O)COc2ccccc2OC)c2ccccc21 (stereo unspecified)", -0.235],
  ["CCN(CC)c1ccc(C=Nc2ccc(C#N)cc2)c(O)c1", 1.43],
  ["O=C(c1cc2c(ccc3ccccc32)oc1=O)N1CCN(CCO)CC1", 3.29],
  ["CC(C)NC(=O)c1ccc(CS(=O)(=O)c2ccc(Br)cc2)o1", 1.95],
  ["COCCNS(=O)(=O)c1ccc(C2CNC(=O)C2)cc1 (stereo unspecified)", 2.2],
  ["O=C(Nc1nc2c(s1)CCCC2)c1ccc(Br)o1", 1.8],
  ["CC1CCN(c2nc(-c3ccco3)c3c(c2C#N)CC(C)(C)OC3)CC1", 0.175],
  ["COc1ccc(N2C(=O)CCC(C(=O)Nc3ccccn3)C2c2ccc(OC)c(OC)c2)cc1 (stereo unspecified)", 1.64],
  ["O=C(Nc1sc2c(c1C(=O)NCC1CCCO1)CCCC2)c1cccs1 (stereo unspecified)", 1],
  ["Cc1ccc(-c2nnc3ccc(SC(C)C(=O)O)nn23)cc1 (stereo unspecified)", 2.31]
]}

* * *

experiment: inhibitors of the yeast RAM network, pilot screen, dse1pr::URA3 reporter, 5-FOA selection (AID 869);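 note: 0% = DMSO wells with no growth and 100% = 10 µM 1-NA-PP1 with full growth; RAM network block rescues cells from 5-FOA so hits raise OD615 growth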; settings: S. cerevisiae dse1pr::URA3 5-FOA growth, OD615, 2 d; at 10 µM; hits give high values; strain carries analog-sensitive mutant Cbk1 kinase
inhibition for assorted compounds

{"columns": ["smiles_string", "unit_abbreviation", "inhibition"],
 "data": [
  ["O=C(O)CCc1ccc(-c2cccs2)n1-c1ccc(C(=O)O)cc1", "%", 2.39],
  ["CN(CC(=O)N1CC=C(c2ccccc2)CC1)S(=O)(=O)c1ccc2c(c1)c(=O)n(C)c(=O)n2C", "%", 0.26],
  ["CCOC(=O)c1c(C)nc(-c2ccccc2)nc1NC(C)=O", "%", 1.92],
  ["COc1ccc(-n2c(Cc3cc(=O)[nH]c(=O)[nH]3)nnc2SCC(=O)N2CCCC2)cc1", "%", 0.805],
  ["CC1(C)Cc2c(sc3nc(-c4cccs4)n(N)c(=O)c23)CO1", "%", 0.19]
]}
